Where do these numbers come from? They come from the supplement of paper PMC10883282.

Test system: SYO-1
Experiment: relative viability vs DMSO control (72 h) (fraction); higher = more viable cells
Conditions: 1.111 µM
Define the label as YES when relative viability is strictly less than 0.9 and as NO in all remaining cases.

[[record]]
entry_smiles = "Cc1cc(Nc2ncnc3ccc(NC4=NC(C)(C)CO4)cc23)ccc1Oc1ccn2ncnc2c1"
cat = "NO"


State whether 0.9 exceeds relative viability recorded for `CC(=O)Nc1cccc(-n2c(=O)n(C3CC3)c(=O)c3c(Nc4ccc(I)cc4F)n(C)c(=O)c(C)c32)c1` .
YES

What do you have for `CCc1cc2c(cc1N1CCC(N3CCOCC3)CC1)C(C)(C)c1[nH]c3cc(C#N)ccc3c1C2=O` ?
NO

Next: `N#CC[C@H](C1CCCC1)n1cc(-c2ncnc3[nH]ccc23)cn1`
NO

Same read-out for `C=CC(=O)N1CCC([C@@H]2CCNc3c(C(N)=O)c(-c4ccc(Oc5ccccc5)cc4)nn32)CC1` ?
NO
